tested on: MCF7; assay: Cytotoxicity against human MCF7 cells after 48 hrs by MTT assay; type: functional, cell-based; settings: MCF7, 48 h
pIC50: −log10 of the molar value.
Kindly state pIC50 for each of the entries shown.

-- ask Which value of pIC50 has been reported for FC(F)(Cl)C(F)(Cl)CCSc1nc2ccccc2s1 (configuration not stated) in the records?
-- reply < 3.92

-- ask Could you do the same for [O-][S+](CCC(F)(Cl)C(F)(F)Cl)c1nc2ccccc2s1 (configuration not stated) , please?
-- reply 4.77

-- ask Could you do the same for N#CC(C#N)(CCC(F)=C(F)F)Cc1nccs1 , please?
-- reply < 3.92

-- ask Could you do the same for O=S(=O)(CCC(F)=C(F)F)c1nc2ccc(OC(F)F)cc2[nH]1 , please?
-- reply < 3.92

-- ask Could you do the same for O=S(=O)(CCC(F)=C(F)F)c1nc2ccccc2[nH]1 , please?
-- reply < 3.92

-- ask Could you do the same for FC(F)=C(F)CCSc1nc2ccccc2[nH]1 , please?
-- reply < 3.92

-- ask Could you do the same for c1ccc2sc(SNC3CCCCC3)nc2c1 , please?
-- reply 4.05

-- ask Could you do the same for [O-][S+](CCC(F)=C(F)F)c1ncc(-c2ccncc2)s1 (configuration not stated) , please?
-- reply < 3.92

-- ask Could you do the same for c1ccc2sc(SSc3nc4ccccc4s3)nc2c1 [BENZOTHIAZYL DISULFIDE] , please?
-- reply < 3.92

-- ask Could you do the same for FC(F)=C(F)CCSc1ccccn1 , please?
-- reply < 3.92

-- ask Could you do the same for CC(c1nccs1)C(C#N)(C#N)CCC(F)=C(F)F (configuration not stated) , please?
-- reply < 3.92

-- ask Could you do the same for O=S(=O)(CCC(F)(Cl)C(F)(F)Cl)c1nc2ccc(Cl)cc2s1 (configuration not stated) , please?
-- reply 5.08
